Measured values drawn from patent US20250057859A1 for this set.

Protocol description: PC3 cell line toxicity (Cell titer Glo viability)
Assay type: cell-based
Condition set: human, PC3 prostate adenocarcinoma cells; PC3, 3.3 uM, 72 h
Experimental endpoint: viability at 72 h, 3.3 µM (%)
The reply should contain only the number, in %.

# viability at 72 h, 3.3 µM lookup, item CN[C@@H]1C[C@H]2O[C@@](C)([C@@H]1OC)n1c3ccccc3c3c4c(c5c6ccccc6n2c5c31)C(=O)NC4 [Staurosporine, staurosporine, reference compound]
8.1

###

Protocol description: SK-MEL-28 cell line toxicity (Cell titer Glo viability)
Format: cell-based
Condition set: human, SK-MEL-28 melanoma cells; SK-MEL-28, 0.37 uM, 72 h
Experimental endpoint: viability at 72 h, 0.37 µM (%)
The reply should contain only the number, in %.

# viability at 72 h, 0.37 µM lookup, item CN[C@@H]1C[C@H]2O[C@@](C)([C@@H]1OC)n1c3ccccc3c3c4c(c5c6ccccc6n2c5c31)C(=O)NC4 [Staurosporine, staurosporine, reference compound]
41.1
